// data source = paper PMC4336329

Measured hERG current change (%, negative = inhibition) at 10uM, listed per entry for reference.
target_entity: human ether-à-go-go-related gene (hERG) potassium channel (human);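 further: peak tail current of the secondary pulse compared with the same well before compound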
procedure_summary: primary screen, population patch clamp on CHO cells stably expressing hERG; higher = less effect of the substance
Out of some 310,000 compounds screened, about 14,000 (4.5%) showed an effect of 50% or more. The effect is printed as a negative number. The sample as a whole holds a higher share of strong results than the screen did.
parameter_measured: hERG current change (%, negative = inhibition) at 10uM (%)

INSERT INTO results (compound, reading) VALUES
  ('CCCCCCCC(=O)Nc1cc(C(=O)NCc2ccc(C)cc2)ccc1N1CCC2(CC1)CC(c1cccc(Br)c1)=NO2', 2.8),
  ('CCOC(=O)C1(CCCc2ccccc2)CCN(C(=O)[C@@H]2C[C@@H](C)NC(=S)N2)CC1', -25.1),
  ('CCOC(=O)C1(CCCc2ccccc2)CCN(C2CCCC2)CC1', -69.7),
  ('Cc1ccc(Nc2nc(N)nc(CN3CCN(Cc4ccc5c(c4)OCO5)CC3)n2)c(C)c1', -76.9),
  ('Cc1ccc(-c2nnc3c4ccccc4c(C)nn23)cc1S(=O)(=O)N1CCN(C)CC1', -6.7),
  ('O=C(CSc1nnc2ccc(-c3ccncc3)nn12)Nc1ccc(F)cc1', -63.2),
  ('Cc1ccc(-c2nnc(N3CCOCC3)c3ccccc23)cc1S(N)(=O)=O', 17.3),
  ('CS(=O)(=O)c1ccc(-c2cccc(NC(=O)COc3ccc(Cl)cc3)c2)nn1', 6.7),
  ('O=C(CSc1nnc2ccc(-c3cccnc3)nn12)Nc1ccc(F)cc1F', -64.9),
  ('CCOC(=O)C1(CCCc2ccccc2)CCN(C(=O)C2CCCN(C(N)=O)C2)CC1 (stereo not drawn)', -72.4),
  ('COCCn1c(-c2ccccc2F)n[nH]c1=S', 21.5),
  ('Cn1c(SCC(=O)Nc2ccc(F)cc2)nnc1C1CC1', 4.27),
  ('CCOC(=O)C1(CCCc2ccccc2)CCN(C2CCC2)CC1', -74.8),
  ('Cc1ccc(-c2nnc(N3CCCCC3)c3ccccc23)cc1S(=O)(=O)N1CCN(C)CC1', -58.7),
  ('CCOC(=O)C1(CCCc2ccccc2)CCN(S(=O)(=O)N(C)C)CC1', -4.73),
  ('COc1ccccc1NC(=O)NNC(=O)C(C)Oc1ccc2ccccc2c1 (stereo not drawn)', 9.36),
  ('Cc1ccccc1NC(=O)CSc1nnc(-c2ccccc2)n1-c1ccccc1', -51.4),
  ('Cc1ccccc1NC(=S)N1CCN(Cc2ccc3c(c2)OCO3)CC1', -10.3),
  ('O=C(O)CCC(NC(=O)c1cncc(O)c1)C(=O)O (stereo not drawn)', -4.94),
  ('CCOC(=O)C1(Cc2ccccc2C(F)(F)F)CCN(C2CCC2)CC1', -36.6),
  ('CC(C)C[C@H](NC(=O)C1CC(=O)N(c2ccc(F)cc2)C1)C(=O)N1CCCCC1 (stereo partly drawn)', -0.716),
  ('Cc1ccc(CNc2ccc3nnc(-c4ccccc4)n3n2)cc1', 15.7),
  ('CCOC(=O)C1(CCc2ccccc2)CCN(C(=O)C2CCOCC2)CC1', -53.1),
  ('Cc1cccc(Nc2nc(N)nc(CN3CCC(C)CC3)n2)c1C', -37.6),
  ('CCOC(=O)N1CCC(N2C(=O)c3ccc(C(=O)Nc4ccc(OC)c(OC)c4)cc3C2=O)CC1', 23.2),
  ('CCOC(=O)C1(CCCc2ccccc2)CCN(S(C)(=O)=O)CC1', -8.15),
  ('Cc1ccc(-c2nnc(NC3CCCCC3)c3ccccc23)cc1S(=O)(=O)N1CCN(C)CC1', -54.6),
  ('CCOC(=O)c1c(C)n(C)c2ccc(OCC(N)=O)cc12', 7.9),
  ('Cc1ccccc1N1CCN(Cc2ccc3c(c2)OCO3)CC1', -31.2),
  ('COc1ccccc1C(=O)Nc1nc(-c2cccs2)c(NC(C)=O)s1', -7.05),
  ('Cc1ccc(-c2nnc(NCc3nc4ccccc4[nH]3)c3ccccc23)cc1S(=O)(=O)N1CCCCC1.Cl', -7.08),
  ('CC(=O)Nc1ccc(NC(=O)CSc2nnc3ccc(-c4ccc(F)cc4)nn23)cc1', 16.8),
  ('CCOC(=O)C1(CCCc2ccccc2)CCN(C(=O)C2CCCO2)CC1 (stereo not drawn)', -25.7),
  ('O=C(CSc1nnc2ccc(-c3ccccn3)nn12)Nc1ccc(F)cc1F', -18),
  ('Cc1ccccc1Nc1nc(N)nc(CN2CCN(Cc3ccc4c(c3)OCO4)CC2)n1', -68),
  ('COc1ccc(NC(=O)CSc2nnc3ccc(-c4ccncc4)nn23)cc1', -30.9),
  ('Cc1ccc(NC(=S)N2CCN(Cc3ccc4c(c3)OCO4)CC2)c(C)c1', -1.01),
  ('CCOC(=O)C1(CCc2ccccc2)CCN(C(=O)C2CCCO2)CC1 (stereo not drawn)', -13),
  ('O=C(C1CCOCC1)N1CCC(CO)(CCc2ccccc2)CC1', 5.29);

====

target_entity: human ether-à-go-go-related gene (hERG) potassium channel (human);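 further: peak tail current of the secondary pulse compared with the same well before compound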
procedure_summary: primary screen, population patch clamp on CHO cells stably expressing hERG; higher = less effect of the substance
The whole screen tested about 310,000 compounds, of which about 14,000 (4.5%) showed an effect of 50% or more. The effect is printed as a negative number. Only a selection was taken, and strong results are over-represented in it overall.
parameter_measured: hERG current change (%, negative = inhibition) at 10uM (%)

INSERT INTO measurements (molecule, units_symbol, reading) VALUES
  ('Cc1sc(-c2ccncc2)nc1OC(=O)c1cc(Cl)cc(Cl)c1', '%', 10.2),
  ('C=CCN1C(=O)/C(=C/c2ccc(OC)cc2)S/C1=N/c1nccs1', '%', 13.4),
  ('CCCCCC1CC(CC(=O)NC(=S)Nc2ccc([N+](=O)[O-])cc2)C(=O)O1 (stereo not shown)', '%', -0.0907),
  ('O=C1Nc2ccc(Br)cc2/C1=C/C(=O)c1ccc2c(c1)OCO2', '%', 9.53),
  ('C/C(CC(=O)Nc1ccccc1Cl)=N\NC(=O)C(=O)NCCO', '%', 6.65),
  ('O=C(NC1CCS(=O)(=O)C1)N1CCCCC1 (stereo not shown)', '%', 13.2),
  ('COc1ccc(NC(=O)CSCc2ccc([N+](=O)[O-])cc2)cc1OC', '%', -17.5),
  ('CCC(C)[C@H](NC(=O)[C@@H]1Cc2ccccc2CN1)C(=O)NCc1ccc(OC)cc1 (stereo partly shown)', '%', -32.7),
  ('CCCCCC1CC(CC(=O)Nc2ccc([N+](=O)[O-])cc2)C(=O)O1 (stereo not shown)', '%', -50),
  ('CCCCCCC1CC(CC(=O)Nc2ccc([N+](=O)[O-])cc2)C(=O)O1 (stereo not shown)', '%', -12.4);

====

target_entity: human ether-à-go-go-related gene (hERG) potassium channel (human, UniProt Q12809);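 further: peak tail current of the secondary pulse compared with the same well before compound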
Sequence (Q12809 whole entry, looked up): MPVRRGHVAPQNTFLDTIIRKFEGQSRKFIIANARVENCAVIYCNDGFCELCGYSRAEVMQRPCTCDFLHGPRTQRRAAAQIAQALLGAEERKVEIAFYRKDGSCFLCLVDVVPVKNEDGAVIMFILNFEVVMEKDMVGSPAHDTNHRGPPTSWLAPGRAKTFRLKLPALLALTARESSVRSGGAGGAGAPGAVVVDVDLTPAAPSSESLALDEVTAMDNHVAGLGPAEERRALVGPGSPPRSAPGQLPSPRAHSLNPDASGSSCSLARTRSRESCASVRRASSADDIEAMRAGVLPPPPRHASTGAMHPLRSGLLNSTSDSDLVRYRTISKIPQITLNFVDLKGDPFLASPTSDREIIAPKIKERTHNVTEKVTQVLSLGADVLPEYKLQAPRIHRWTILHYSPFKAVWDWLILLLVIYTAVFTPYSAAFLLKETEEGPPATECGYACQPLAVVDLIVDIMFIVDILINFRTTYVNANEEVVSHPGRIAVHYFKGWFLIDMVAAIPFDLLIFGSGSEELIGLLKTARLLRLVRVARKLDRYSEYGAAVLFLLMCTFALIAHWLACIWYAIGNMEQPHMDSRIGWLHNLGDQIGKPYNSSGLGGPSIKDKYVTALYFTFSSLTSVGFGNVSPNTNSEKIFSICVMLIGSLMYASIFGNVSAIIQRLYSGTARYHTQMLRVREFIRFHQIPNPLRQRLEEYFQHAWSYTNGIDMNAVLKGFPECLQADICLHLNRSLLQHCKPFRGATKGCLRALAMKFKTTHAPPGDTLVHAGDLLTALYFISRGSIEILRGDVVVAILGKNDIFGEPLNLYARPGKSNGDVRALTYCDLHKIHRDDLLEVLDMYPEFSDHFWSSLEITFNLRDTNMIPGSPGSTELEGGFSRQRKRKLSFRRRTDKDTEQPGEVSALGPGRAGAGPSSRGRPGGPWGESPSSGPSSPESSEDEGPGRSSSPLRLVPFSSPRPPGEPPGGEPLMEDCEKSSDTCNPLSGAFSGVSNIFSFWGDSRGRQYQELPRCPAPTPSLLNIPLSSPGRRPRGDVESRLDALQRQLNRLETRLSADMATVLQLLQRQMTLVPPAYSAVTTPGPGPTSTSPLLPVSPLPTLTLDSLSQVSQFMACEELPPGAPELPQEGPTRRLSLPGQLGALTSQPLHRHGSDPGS
procedure_summary: primary screen, population patch clamp on CHO cells stably expressing hERG; higher = less effect of the substance
About 14,000 (4.5%) of roughly 310,000 compounds showed an effect of 50% or more. Effects have a minus sign here. Shown is part of a subset that was picked to be rich in strong results.
parameter_measured: hERG current change (%, negative = inhibition) at 10uM (%)

INSERT INTO assay_data (molecule, reading) VALUES
  ('CCc1ccccc1NC(=O)C1CCCN1S(=O)(=O)c1ccc2c(c1)n(C)c(=O)c(=O)n2C (stereo not shown)', -3.91),
  ('CC(C)NC(=S)N1CCC(Cc2ccccc2)CC1', -2.26),
  ('Cc1ccc(NC(=O)C2CCCN2S(=O)(=O)c2ccc(-c3ccc(=O)[nH]n3)s2)c(C)c1 (stereo not shown)', -15.4),
  ('COC(=O)C1=C(c2ccc(F)cc2OCc2ccccc2)C[C@@H]2CC[C@H]1N2C(=O)NCc1ccc(OC)c(OC)c1', -2.13),
  ('CC(C(O)c1ccc(O)cc1)N1CCC(Cc2ccccc2)CC1.O.O=C(O)C(O)C(O)C(=O)O (stereo not shown)', -65.4),
  ('Cc1ccc(S(=O)(=O)N2CCCCC2)cc1C(=O)N1CCN(CCO)CC1', 3.41),
  ('CC(=O)Oc1cccc(C(=O)Nc2ccccc2NC(=O)c2cccc(OC(C)=O)c2)c1', 9.7),
  ('Cc1cccc(C)c1NC(=O)C1CCCN1S(=O)(=O)c1ccccc1 (stereo not shown)', 4.4),
  ('CCC1(c2ccccc2)NC(=O)N(CC(=O)c2ccc3c(c2)OCO3)C1=O (stereo not shown)', -4.15),
  ('C[C@@H](CN1CCC(Cc2ccccc2)CC1)[C@@H](O)c1ccc(O)cc1.Cl', -71.3),
  ('CC(C)C(=O)N1CCC(Cc2ccccc2)CC1', 4.6),
  ('O=C1c2ccccc2CN1CCSC(=S)N1CCOCC1', -8.59),
  ('O=C1Nc2ccccc2N(O)N1c1cc(-c2ccc(Cl)cc2)[nH]n1', 22.9),
  ('COC(=O)C1(Cc2cc(-c3ccc(Cl)cc3)no2)CCN(C(=O)OC(C)(C)C)CC1', -22.8),
  ('CCc1ccccc1NC(=O)C1CCCN1S(=O)(=O)c1ccc(-c2ccc(=O)[nH]n2)s1 (stereo not shown)', -54.7),
  ('CC(C)[C@H](NC(=O)N1CCC(Cc2ccccc2)CC1)C(=O)O', 6.12),
  ('Cc1cc2nc(-c3ccc(SCC(=O)Nc4ccc5c(c4)OCCO5)nc3)[nH]c2cc1C', 2.26),
  ('CCc1nnc(NC(=O)C2CCCN2S(=O)(=O)c2ccccc2)s1 (stereo not shown)', 14.8),
  ('CC(=O)Nc1ccc(N2CCc3c(C)c(C#N)c4nc5ccccc5n4c32)cc1', 8.55);
